Sourced from ChEMBL document CHEMBL1629529

Reported CC50 values for the following compounds.
Experiment: Cytotoxicity in human TZM-bl cells after 4 day by XTT assay
Type: cell-based
Conditions: 96 h

compound: Cc1cc(C(O)C[N+](=O)[O-])cc(C)c1Oc1ccc(N)c(Nc2ccc(C#N)cc2)n1.Cl (stereo not given)
result_modifier: =
CC50 (µM): 7.02
//
compound: Cc1cc(C#CC2CC2)cc(C)c1Oc1ccc(N)c(Nc2ccc(C#N)cc2)n1
result_modifier: =
CC50 (µM): 7.45
//
compound: Cc1cc(C#N)cc(C)c1Oc1nc(Nc2ccc(C#N)cc2)nc(N)c1Br
result_modifier: =
CC50 (µM): 8.96
//
compound: Cc1cc(/C=C/C#N)cc(C)c1Oc1cc(Nc2ccc(C#N)cc2)c(N)cc1[N+](=O)[O-]
result_modifier: >
CC50 (µM): 47.1
//
compound: Cc1cc(/C=C/C#N)cc(C)c1Oc1cc(Nc2ccc(C#N)cc2)c([N+](=O)[O-])cc1[N+](=O)[O-]
result_modifier: >
CC50 (µM): 44
//
compound: Cc1cc(Br)cc(C)c1Oc1ccc([N+](=O)[O-])c(Nc2ccc(C#N)cc2)n1
result_modifier: >
CC50 (µM): 45.7
//
compound: CC(=O)/C=C/c1cc(C)c(Oc2ccc([N+](=O)[O-])c(Nc3ccc(C#N)cc3)n2)c(C)c1
result_modifier: >
CC50 (µM): 46.7
//
compound: Cc1cc(C(O)C[N+](=O)[O-])cc(C)c1Oc1ccc([N+](=O)[O-])c(Nc2ccc(C#N)cc2)n1 (stereo not given)
result_modifier: >
CC50 (µM): 44.5
//
compound: CC(=O)/C=C/c1cc(C)c(Oc2cc(Nc3ccc(C#N)cc3)c([N+](=O)[O-])cc2[N+](=O)[O-])c(C)c1
result_modifier: =
CC50 (µM): 24.4
//
compound: CC(=O)CCc1cc(C)c(Oc2ccc(N)c(Nc3ccc(C#N)cc3)n2)c(C)c1
result_modifier: =
CC50 (µM): 9.25
//
compound: Cc1cc(/C=C/C#N)cc(C)c1Oc1ccc([N+](=O)[O-])c(Nc2ccc(C#N)cc2)n1
result_modifier: >
CC50 (µM): 48.7
//
compound: Cc1cc(/C=C/C(=O)O)cc(C)c1Oc1ccc([N+](=O)[O-])c(Nc2ccc(C#N)cc2)n1
result_modifier: =
CC50 (µM): 27.8
//
compound: Cc1cc(/C=C/C#N)cc(C)c1Oc1cc(Nc2ccc(C#N)cc2)c(N)cc1N
result_modifier: =
CC50 (µM): 14.4
//
compound: Cc1cc(Br)cc(C)c1Oc1ccc(N)c(Nc2ccc(C#N)cc2)n1
result_modifier: =
CC50 (µM): 15.5
//
compound: CC(=O)/C=C/c1cc(C)c(Oc2cc(Nc3ccc(C#N)cc3)c(N)cc2[N+](=O)[O-])c(C)c1
result_modifier: =
CC50 (µM): 5.88
//
compound: C=CCc1cc(C)c(Oc2ccc(N)c(Nc3ccc(C#N)cc3)n2)c(C)c1
result_modifier: =
CC50 (µM): 8.46
//
compound: Cc1cc(/C=C/C(=O)O)cc(C)c1Oc1ccc(N)c(Nc2ccc(C#N)cc2)n1
result_modifier: =
CC50 (µM): 18
//
compound: Cc1cc(/C=C/C#N)cc(C)c1Oc1ccc([N+](=O)[O-])c(Nc2ccc(C#N)cc2)c1
result_modifier: >
CC50 (µM): 48.8
//
compound: Cc1cc(/C=C/C#N)cc(C)c1Oc1ccc(N)c(Nc2ccc(C#N)cc2)n1
result_modifier: =
CC50 (µM): 9.75
//
compound: Cc1cc(/C=C/C#N)cc(C)c1Oc1ccc(N)c(Nc2ccc(C#N)cc2)c1
result_modifier: =
CC50 (µM): 25
